# Tested on: Bacillus licheniformis (BL)
# method.summary: Effectiveness of peptides on spiked fuel samples (aqueous layer)
# Assay type: cell-based
# Design: key: (+) =1 (implying peptide activity in fuel environment); (X) = 0 (implying no activity in the desired range, indicated by microbial proliferation); Fuel x = -1(implying no activity in fuel environment)
# conditions.used: initial screening in spiked fuel
readout.type: activity considering MIC value/efficacy upon fuel co-incubation

CC(C)C[C@H](NC(=O)[C@@H](N)Cc1ccc(O)cc1)C(=O)N1CCC[C@H]1C(=O)N[C@@H](Cc1c[nH]c2ccccc12)C(=O)N[C@@H](CCCCN)C(=O)N[C@@H](Cc1c[nH]c2ccccc12)C(=O)N1CCC[C@H]1C(=O)N[C@@H](Cc1c[nH]c2ccccc12)C(=O)N[C@@H](Cc1c[nH]c2ccccc12)C(=O)N1CCC[C@H]1C(=O)N[C@@H](Cc1c[nH]c2ccccc12)C(=O)N[C@@H](CCCNC(=N)N)C(=O)N[C@@H](CCCNC(=N)N)C(=O)O = +
CC[C@H](C)[C@H](N)C(=O)N[C@@H](CC(C)C)C(=O)N[C@H](C(=O)N[C@@H](Cc1c[nH]c2ccccc12)C(=O)N[C@@H](CCCCN)C(=O)N[C@@H](Cc1c[nH]c2ccccc12)C(=O)N1CCC[C@H]1C(=O)N[C@@H](Cc1c[nH]c2ccccc12)C(=O)N[C@@H](Cc1c[nH]c2ccccc12)C(=O)N1CCC[C@H]1C(=O)N[C@@H](Cc1c[nH]c2ccccc12)C(=O)N[C@@H](CCCNC(=N)N)C(=O)N[C@@H](CCCNC(=N)N)C(=O)O)[C@@H](C)CC = +
CC[C@H](C)[C@H](N)C(=O)N[C@@H](CC(C)C)C(=O)N[C@@H](CC(C)C)C(=O)N[C@@H](Cc1c[nH]c2ccccc12)C(=O)N[C@@H](CCCCN)C(=O)N[C@@H](Cc1c[nH]c2ccccc12)C(=O)N1CCC[C@H]1C(=O)N[C@@H](Cc1c[nH]c2ccccc12)C(=O)N[C@@H](Cc1c[nH]c2ccccc12)C(=O)N1CCC[C@H]1C(=O)N[C@@H](Cc1c[nH]c2ccccc12)C(=O)N[C@@H](CCCNC(=N)N)C(=O)N[C@@H](CCCNC(=N)N)C(=O)O = +

###

Below, each entry is listed with its recorded R t, retention time of peptide on HPLC column as a function of peptide hydrophobicity.
# method.summary: HPLC retention time as a function of peptide hydrophobicity
# Format: physicochemical
# conditions.used: chromatographic, Polaris 5 C18-A reverse phase, 0.1% TFA water / 0.1% TFA acetonitrile gradient, 30 min, 300 μM peptide
Where no end group is shown, it is not given here.
Reply numerically in min, unit not repeated.

Example cases with answers are listed next.
ILPWKWPWFPWRR [P6] = 12.299
ILPWKWPWWPFRR [P4] = 12.891

Input line: Please report the recorded R t, retention time of peptide on HPLC column as a function of peptide hydrophobicity for ILPWKWPWWPWRK [P2] .
Output line: 12.624

Input line: Likewise for ILPWKFPWWPWRR [P9] ?
Output line: 12.610

Input line: Likewise for ILPWKWPWWVWRR [P5] ?
Output line: 12.045

Input line: Likewise for ILPWRWPWWPWRR [P10] ?
Output line: 12.417

Input line: Likewise for ILPWKWVWWPWRR [P8] ?
Output line: 12.168

Input line: Likewise for ILPWKWPFWPWRR [P7] ?
Output line: 12.156
